- System: IGROV1 ovarian
- experimentSummary: NCI tumour cell line growth inhibition, 48 h; in the data active = GI50 below about 0.43 µM; inactive = the rest
The categories you may choose from are TRUE (active), FALSE (inactive)

// query Given CC(=O)OC(C)(C)/C(C)=C/C(=O)O[C@H]1C(=O)O[C@@H]2C[C@H]3[C@H](C)C(=O)C(O[C@@H]4O[C@H](CO)[C@@H](O)[C@H](O)[C@H]4O)=C[C@]3(C)[C@H]3[C@@H](O)[C@H](O)[C@@]4(C(=O)O)OC[C@]32[C@@H]14 , state the outcome it received in this test.
// result FALSE

// query Hello, I am checking results. What call was entered for CC(C)(C)c1cc(-n2c(-c3ccc(Cl)cc3)nc3cc(C(=O)Nc4ccc(Cl)cc4)ccc32)n[nH]1 ?
// result FALSE

// query Which outcome was entered for the compound CCC(=C/[C@H](C)C/C=C/C(C)=C/[C@@H](C)C(=O)[C@@H](C)[C@H](O)[C@@H](C)CC)/C=C/[C@@H]1OC(=O)C=C[C@H]1C in this test?
// result TRUE

###

- Test system: SF-268 CNS
- experimentSummary: NCI tumour cell line growth inhibition, 48 h
valueKind: TGI

// query For the compound CC1(C)OC(=O)N(c2ccccc2)C12C=Cc1cccc([N+](=O)[O-])c1O2 (stereo not drawn) , give its reported TGI.
// result > 100 µM

// query Identify TGI associated with the compound CS(=O)(=O)c1ccc(N=C/C=C/Nc2ccc(S(C)(=O)=O)cc2)cc1
// result > 100 µM

// query Using the record for COc1cc(-c2cc(=O)c3c(O)c(CC=C(C)C)c(O)cc3o2)ccc1O , state its measured TGI.
// result > 50 µM

// query Assign TGI to the following record: COC(=O)c1cc(C(=CCC[C@H]2CC[C@@]3(C)C(CCC4C3CC[C@@]3(C)C4CC[C@@H]3C(C)CCCC(C)C)C2)c2cc(Cl)c(O)c(C(=O)OC)c2)cc(Cl)c1O (stereo partly drawn)
// result > 10 µM

// query Give TGI for the following compound: C/C(=N\NS(=O)(=O)c1ccc(C)cc1)P(=O)(O)O
// result > 100 µM

// query Give TGI for the following compound: CC(=O)O[C@H]1CC[C@@]2(C)C(=CC[C@@H]3[C@@H]2CC[C@]2(C)c4c(C)nn(-c5ccccc5)c4C[C@@H]32)C1
// result > 100 µM

// query Please indicate TGI recorded for CN1C(=O)C2(C=CC(O)CC2)c2ccccc21 (stereo not drawn)
// result > 100 µM

// query Name the recorded TGI of the compound listed here: O=C1C2=C(CC3=C(C2)CS(=O)(=O)C3)C(=O)C2=C1CC1=C(C2)CS(=O)(=O)C1
// result > 47.7 µM

// query Let me know recorded TGI for C/C(CC(=O)Nc1ccc(C)c(C)c1)=N\NC(N)=O , thanks.
// result > 100 µM

// query Please give measured TGI of the following entry: O=c1ncc(F)cn1C1OC(CO)C(O)C1O (stereo not drawn)
// result > 77.4 µM

// query For CCOC(=O)c1cc2c(cc1Cl)SC(N(c1ccc(OC)cc1)S(=O)(=O)c1ccc(Cl)cc1)=NS2(=O)=O , write its TGI.
// result 67.6 µM

// query Give the reported TGI for this compound. CC(=O)NC1(c2cc3ccccc3s2)CCCCCC1
// result 40.9 µM

// query Answer with the recorded TGI for the compound listed here: [N-]=[N+]=NCCCCCC(=O)OC(C(=O)c1ccccc1)c1cccc(OCC(=O)NCCOCCOCCNC(=O)CCCC[C@@H]2SC[C@@H]3NC(=O)N[C@@H]32)c1 (stereo partly drawn)
// result > 100 µM

// query Respond only with TGI recorded for O=C(c1ccccc1)c1ccc2[nH]c(-c3c(Cl)c(Cl)c(Cl)c(Cl)c3C(=O)N/N=C/c3cccc(Oc4ccccc4)c3)nc2c1
// result > 100 µM

// query Answer with reported TGI of O=C(Cc1ccc(F)c(F)c1)Nc1cc(C2(C(F)(F)F)CC2)nn1Cc1ccccc1
// result > 15 µM

// query Output measured TGI for this item: O=[N+]([O-])C(=C(N1CCOCC1)N1CCOCC1)/C(Cl)=C(\Cl)Br
// result 81.3 µM

// query Give the measured TGI for CC(=O)OCC1OC(n2c(-c3ccccc3)c(C(C)=O)c(-c3cccc4ccccc34)c(C#N)c2=S)C(OC(C)=O)C(OC(C)=O)C1OC(C)=O (stereo not drawn)
// result > 100 µM

// query State its TGI: CN(Cc1ccccc1)c1ccc(CO)c(Cl)c1
// result > 100 µM
